# systemUnderTest: SYK(S550F)-NL (Homo sapiens, UniProt P43405, S550F)
# Construct: host or cells: HEK293
# assayName: NanoBRET cellular target engagement assay in intact live HEK293 cells, SYK(S550F)-NL
# Type: cell-based
# conditionInfo: tracer titration, [Tracer] 125 nM; read-out: IC50, SYK(S550F)-NL + 8 + MRL-SYKi
measuredEndpoint: pIC50
The read-out pIC50 is expressed as -log10 of concentration in moles per litre.

Quick check: pIC50 on SYK(S550F)-NL (Homo sapiens, UniProt P43405, S550F), item Cc1cc(Nc2nccc(C)n2)cc(-c2cnc([C@@]3(O)CC[C@H](C(=O)O)C(C)(C)C3)s2)c1 ? 6.80

====

# systemUnderTest: SYK(S550Y)-NL (Homo sapiens, UniProt P43405, S550Y)
# Construct: host or cells: HEK293
# assayName: NanoBRET cellular target engagement assay in intact live HEK293 cells, SYK(S550Y)-NL
# Assay type: cell-based
# conditionInfo: intact cells, ± 10 μM MRL-SYKi, single experiment; read-out: cellular EC50 of the tracer, SYK(S550Y)-NL
measuredEndpoint: EC50 (nM)
Kindly answer with a numeric value in nM, unit omitted.

Recorded EC50 for Cc1cc(Nc2nccc(C)n2)cc(-c2cnc([C@@]3(O)CC[C@H](C(=O)NCCCNC(=O)CCc4ccc5n4[B-](F)(F)[N+]4=C(c6ccc[nH]6)C=CC4=C5)C(C)(C)C3)s2)c1 [Tracer 8] , please? 159

====

# systemUnderTest: SYK(S550Y)-NL (Homo sapiens, UniProt P43405, S550Y)
# assayName: NanoBRET cellular target engagement assay in intact live HEK293 cells, SYK(S550Y)-NL
# conditionInfo: linearized Cheng-Prusoff analysis, y-intercept, tracer 8, single experiment; read-out: KD, app SYK(S550Y)
measuredEndpoint: pKd
Keep in mind that pKd stands for -log10 of concentration in molar terms.

Reported pKd, compound Cc1cc(Nc2nccc(C)n2)cc(-c2cnc([C@@]3(O)CC[C@H](C(=O)O)C(C)(C)C3)s2)c1 [MRL-SYKi] : ____ 7.57

====

# systemUnderTest: SYK(S550F)-NL (Homo sapiens, UniProt P43405, S550F)
# Construct: host or cells: HEK293
# assayName: NanoBRET cellular target engagement assay in intact live HEK293 cells, SYK(S550F)-NL
# Assay type: cell-based
# conditionInfo: tracer titration, [Tracer] 15.6 nM; read-out: IC50, SYK(S550F)-NL + 8 + MRL-SYKi
measuredEndpoint: pIC50
As a rule, pIC50 stands for the negative log10 of the concentration, concentration in M.

Quick one: pIC50 for Cc1cc(Nc2nccc(C)n2)cc(-c2cnc([C@@]3(O)CC[C@H](C(=O)O)C(C)(C)C3)s2)c1 ? 7.36

====

# systemUnderTest: SYK(A353T)-NL (Homo sapiens, UniProt P43405, A353T)
# assayName: NanoBRET assay in digitonin permeabilized HEK293 cells, SYK(A353T)-NL
# conditionInfo: fixed concentration of tracer 8, average ± SEM, read-out: IC50, SYK(variant)-NL A353T
measuredEndpoint: IC50 (µM)
Note: unit µM is implicit; provide only the numeric part.

Would you kindly share the measured IC50 for Cc1cc(Nc2nccc(C)n2)cc(-c2cnc([C@@]3(O)CC[C@H](C(=O)O)C(C)(C)C3)s2)c1 [MRL-SYKi] ? 0.01
